# measured-on: ETA (Oryctolagus cuniculus, UniProt A5A8K3)
# Sequence (A5A8K3 21-427): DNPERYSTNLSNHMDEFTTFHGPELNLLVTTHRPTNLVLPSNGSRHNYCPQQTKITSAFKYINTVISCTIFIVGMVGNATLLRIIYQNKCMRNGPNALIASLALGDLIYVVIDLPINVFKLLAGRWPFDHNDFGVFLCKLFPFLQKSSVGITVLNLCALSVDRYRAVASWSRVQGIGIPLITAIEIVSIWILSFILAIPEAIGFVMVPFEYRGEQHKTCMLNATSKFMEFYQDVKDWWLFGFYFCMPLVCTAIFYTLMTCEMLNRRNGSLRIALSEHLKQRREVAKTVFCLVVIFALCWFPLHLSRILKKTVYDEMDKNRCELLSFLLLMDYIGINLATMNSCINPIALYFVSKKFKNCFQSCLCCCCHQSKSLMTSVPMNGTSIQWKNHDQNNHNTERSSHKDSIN
# condition-notes: ERBA-A IC50, [125I]-ET-1, rabbit renal artery vascular smooth muscle cells
Counter-ions that a name gives are not always drawn.
Would you mind telling me the reported IC50 of each entry?
Quick note: give the figure in nM, leave out the unit.

Exam item: Given the compound COC(=O)c1cccc(CC2=C(c3ccc4c(c3)OCO4)C(=O)OC2(O)c2ccc(OC)cc2)c1 (stereo not drawn) , what is its reported IC50?
Marked response: 4.6

Exam item: Data request, read-out IC50, for COc1ccc(CC2=C(c3ccc(N(C)C)cc3)C(=O)OC2(O)c2ccc(Cl)cc2)cc1OC (racemic)
Marked response: 14000

Exam item: What does the record list as IC50 for COc1ccc(C2(O)OC(=O)C(c3ccc4c(c3)OCO4)=C2Cc2ccccc2Oc2ccc3c(c2)OCO3)cc1 (stereo not drawn) ?
Marked response: 8.4

Exam item: Value lookup for IC50; key = COc1ccc(C2(O)OC(=O)C(c3cc(OC)cc(OC)c3)=C2Cc2cccnc2)cc1 (stereo not drawn) [Example 133]
Marked response: 30

Exam item: I'd like to know its IC50. The compound in question is COc1cc(OC)cc(/C(C(=O)O)=C(\Cc2ccc(NC(C)=O)cc2)C(=O)c2ccc(OC)c(C)c2)c1
Marked response: 5

Exam item: Request the reported IC50 associated with CCCOc1cccc(CC2=C(c3cccc(OC)c3)C(=O)OC2(O)c2ccc(OC)cc2)c1 (stereo not drawn)
Marked response: 100

Exam item: Fill blank: measured IC50 of the compound COc1ccc(C2(O)OC(=O)C(c3cc(OC)cc(OC)c3)=C2Cc2cccc(C(=O)O)c2)cc1 (stereo not drawn) is ____.
Marked response: 710

Exam item: Could you tell me which IC50 is on file for COc1ccc(C2(O)OC(=O)C(c3ccc4c(c3)OCO4)=C2Cc2cccnc2)cc1 (racemic) [Example 165, monohydrochloride] ?
Marked response: 40

Exam item: Requested read-out: IC50. Entry: O=C1OC(O)(c2ccc(Cl)cc2)C(Cc2cccc3ccccc23)=C1c1ccc2c(c1)OCO2 (racemic)
Marked response: 2800

* * *

For each record, write down the corresponding IC50.
# measured-on: ETA (Oryctolagus cuniculus, UniProt A5A8K3)
# condition-notes: ERBA-A IC50, [125I]-ET-1, rabbit renal artery vascular smooth muscle cells
Structures can show the parent of a compound that is named as a salt.
Numeric answer only, unit nM assumed.

Exam item: # input compound: COc1ccc(C2(O)OC(=O)C(c3ccc4c(c3)OCO4)=C2Cc2ccc(C)cc2)cc1 (centres unmarked) ; wanted: its IC50
Marked response: 50

Exam item: // query IC50 value for entry COc1ccc(C2(O)OC(=O)C(c3ccc4c(c3)OCO4)=C2Cc2ccc(N(C)C)cc2)cc1 (centres unmarked)
Marked response: 23

Exam item: Given the entry COc1ccc(C2(O)OC(=O)C(c3ccc4c(c3)OCO4)=C2Cc2cncc3ccccc23)cc1 (racemic) [Example 164, monohydrochloride] , report its measured IC50.
Marked response: 50

Exam item: What value of measured IC50 is listed for COc1ccc(C2(O)OC(=O)C(c3cc(OC)c4c(c3)OCO4)=C2Cc2ccccc2)cc1 (centres unmarked) ?
Marked response: 5.6

Exam item: Suppose we examine the compound COc1cccc(CC2=C(c3ccc4c(c3)OCO4)C(=O)OC2(O)c2ccc(Cl)cc2)c1 (centres unmarked) ; what IC50 value has been reported?
Marked response: 3900

* * *

# measured-on: human ETB receptor (Homo sapiens)
# Construct: expressed in transfected cells; host or cells: CHO-K1 cells, pRc-CMW (so in the source) expression vector, electroporation; membranes used
# Sequence (P24530 27-442): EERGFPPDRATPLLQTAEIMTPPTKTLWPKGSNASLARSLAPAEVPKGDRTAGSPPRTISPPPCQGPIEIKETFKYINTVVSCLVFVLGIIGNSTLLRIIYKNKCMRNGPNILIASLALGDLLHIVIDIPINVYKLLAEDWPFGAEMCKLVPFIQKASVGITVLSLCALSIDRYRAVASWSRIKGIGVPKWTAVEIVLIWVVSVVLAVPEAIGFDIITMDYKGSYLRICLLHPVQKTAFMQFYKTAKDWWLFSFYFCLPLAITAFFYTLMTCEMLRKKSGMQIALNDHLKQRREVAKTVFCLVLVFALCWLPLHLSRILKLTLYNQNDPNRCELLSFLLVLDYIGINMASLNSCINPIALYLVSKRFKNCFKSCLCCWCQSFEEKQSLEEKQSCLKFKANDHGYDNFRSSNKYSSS
# assay-text: ERBA-B: [125I]-ET-1 binding, recombinant human ETB receptor expressed in CHO-K1 cells
# condition-notes: human cloned ETB receptor, read-out: ERBA-B IC50, human cloned receptor data
quantity-name: IC50

Exam item: State the recorded IC50 for this entry: COc1ccc(C2(O)OC(=O)C(c3ccc4c(c3)OCO4)=C2Cc2ccc(C(=O)NCCN3CCOCC3)cc2)cc1 (racemic)
Marked response: > 2500 nM

Exam item: Reported IC50 for COc1ccc(C(=O)/C(Cc2ccccc2)=C(\C(=O)O)c2ccc3c(c2)OCO3)cc1 : what is it?
Marked response: > 250 nM

Exam item: Give the measured IC50 of COc1ccc(C2(O)OC(=O)C(c3cc(OC)cc(OC)c3)=C2Cc2cccc(C(=O)O)c2)cc1 (stereo not drawn) .
Marked response: > 2500 nM

* * *

# measured-on: human ETB receptor (Homo sapiens, UniProt P24530)
# Construct: expressed in transfected cells; host or cells: CHO-K1 cells, pRc-CMW (so in the source) expression vector, electroporation; membranes used
# assay-text: ERBA-B: [125I]-ET-1 binding, recombinant human ETB receptor expressed in CHO-K1 cells
# condition-notes: human cloned ETB receptor, read-out: ERBA-B IC50, human cloned receptor data
pIC50: −log10 of the molar value. Structures can show the parent of a compound that is named as a salt.
Label No if pIC50 falls below 6; label Yes in every other case.

Exam item: Test whether the molecule COc1ccc(C(=O)/C(Cc2ccc(NC(C)=O)cc2)=C(\C(=O)O)c2ccc3c(c2)OCO3)cc1 [Example 366] records pIC50 of 6 or higher.
Marked response: No

Exam item: Does the molecule COc1ccc(C(=O)/C(Cc2cc(OC)c(OC)c(OC)c2)=C(\C(=O)O)c2cc(OC)c3c(c2)OCO3)cc1 [Example 371] have recorded pIC50 that is 6 or more?
Marked response: Yes

Exam item: For this molecule, is measured pIC50 6 or higher? O=C1OC(O)(c2cccc(Cl)c2)C(Cc2ccccc2)=C1c1ccc2c(c1)OCO2 (stereo not drawn) [Example 235]
Marked response: No

Exam item: Textbook exercise: given the entry COc1ccc(C2(O)OC(=O)C(c3cc(OC)c4c(c3)OCO4)=C2Cc2cc(OC)c(OC)c(OC)c2)cc1C (stereo not drawn) [Example 361] , state whether its pIC50 is greater than or equal to 6.
Marked response: Yes

Exam item: In plain terms: is recorded pIC50 at least 6 for COc1ccc(C2(O)OC(=O)C(c3ccc4c(c3)OCO4)=C2Cc2cncc3ccccc23)cc1 (stereo not drawn) [Example 161] ?
Marked response: No

Exam item: Please tell me: is the molecule COc1cc(OC)cc(/C(C(=O)O)=C(\Cc2c(OC)cc(OC)cc2OC)C(=O)c2ccc(OC)c(C)c2)c1 [Example 392] at or over 6 in terms of pIC50?
Marked response: No

Exam item: hey, is pIC50 for this one >= 6? COc1ccc(C2(O)OC(=O)C(c3cc(OC)c4c(c3)OCO4)=C2Cc2cc(OC)c(OC)c(OC)c2)cc1 (stereo not drawn) [Example 356]
Marked response: Yes

Exam item: Answer whether pIC50 of COc1ccc(C2(O)OC(=O)C(c3ccc4c(c3)OCO4)=C2Cc2ccc(N(C)C)cc2)cc1 (stereo not drawn) [Example 85] is greater than or equal to 6.
Marked response: No

Exam item: Is the recorded value of pIC50 equal to or greater than 6 for this molecule? CCCCCC1=C(c2ccc3c(c2)OCO3)C(=O)OC1(O)c1ccc(OC)cc1 (stereo not drawn) [Example 340]
Marked response: Yes

Exam item: Does COc1ccc(C2(O)OC(=O)C(c3ccc4c(c3)OCO4)=C2Cc2ccc(S(C)(=O)=O)cc2)cc1 (stereo not drawn) [Example 237] have a reported pIC50 of at least 6?
Marked response: No

Exam item: # check: pIC50 of CCCCOc1ccc(CC2=C(c3ccc4c(c3)OCO4)C(=O)OC2(O)c2ccc(OC)cc2)cc1 (stereo not drawn) [Example 93] is greater than or equal to 6
Marked response: Yes

Exam item: Is pIC50 for COc1ccc(C2(O)OC(=O)C(c3ccc4c(c3)OCO4)=C2Cc2cncc3ccccc23)cc1 (racemic) [Example 164, monohydrochloride] at or above 6?
Marked response: No

Exam item: # check: pIC50 of O=C1OC(O)(c2ccc3c(c2)OCO3)C(Cc2ccccc2)=C1c1ccc2c(c1)OCO2 (stereo not drawn) [Example 245] is greater than or equal to 6
Marked response: No

Exam item: Check the entry COc1ccc(C2(O)OC(=O)C(c3ccc4c(c3)OCO4)=C2Cc2cc(C)c(OC)cc2C)cc1 (stereo not drawn) [Example 251] : does pIC50 equal or exceed 6?
Marked response: No

Exam item: Decide: pIC50 of COc1ccc(C2(O)OC(=O)C(c3ccc4c(c3)OCO4)=C2CC2CCCc3ccccc32)cc1 (stereo not drawn) [Example 398] >= 6?
Marked response: No

Exam item: Check if pIC50 >= 6 (inclusive). Item: COC(=O)c1cccc(C/C(C(=O)c2ccc(OC)cc2)=C(/C(=O)O)c2ccc3c(c2)OCO3)c1 [Example 405, monopotassium salt]
Marked response: No

Exam item: Hello, I need to know if CCCCCCCCOc1c(C)cc(CC2=C(c3ccc4c(c3)OCO4)C(=O)OC2(O)c2ccc(OC)cc2)cc1C (stereo not drawn) [Example 302] has measured pIC50 not below 6. Thanks!
Marked response: No

Exam item: Check if pIC50 >= 6 (inclusive). Item: COc1ccc(C2(O)OC(=O)C(c3ccc4c(c3)OCO4)=C2Cc2ccccc2Oc2ccc3c(c2)OCO3)cc1 (stereo not drawn) [Example 324]
Marked response: No

Exam item: Does the molecule COc1ccc(C2(O)OC(=O)C(c3ccc4c(c3)OCO4)=C2CC2CC2)cc1 (stereo not drawn) [Example 400] have recorded pIC50 that is 6 or more?
Marked response: No
